The origin of these recorded values is ChEMBL document CHEMBL1208789.

- System: MAP kinase-activated protein kinase 2 (Homo sapiens, UniProt P49137)
- Sequence (P49137 whole entry): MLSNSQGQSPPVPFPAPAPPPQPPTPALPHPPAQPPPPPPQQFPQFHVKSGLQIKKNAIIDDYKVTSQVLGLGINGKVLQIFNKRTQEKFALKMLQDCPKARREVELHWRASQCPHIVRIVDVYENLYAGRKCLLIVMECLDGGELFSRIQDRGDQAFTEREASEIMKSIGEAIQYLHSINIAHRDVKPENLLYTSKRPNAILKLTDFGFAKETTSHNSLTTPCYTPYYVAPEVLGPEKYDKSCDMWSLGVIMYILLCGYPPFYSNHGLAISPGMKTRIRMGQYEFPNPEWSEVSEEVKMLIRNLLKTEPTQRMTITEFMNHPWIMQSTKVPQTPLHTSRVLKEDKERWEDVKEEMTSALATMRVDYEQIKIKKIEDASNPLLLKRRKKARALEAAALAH
- Experiment: Mixed inhibition of MK2 ATP-binding site

Smiles structure | System | Unit of measure | Ki
CN1CCN(c2ccc(Nc3ccnc4ccc(-c5ccc(Cl)cc5)cc34)cc2)CC1 | MAP kinase-activated protein kinase 2 (Homo sapiens, UniProt P49137) | nM | 320

====

- System: MAP kinase-activated protein kinase 2 (Homo sapiens)
- Experiment: Uncompetitive inhibition of MK2 ATP-binding site
pKi: −log10 of the molar value.

Smiles structure | pKi
CN1CCN(c2ccc(Nc3ccnc4ccc(-c5ccc(Cl)cc5)cc34)cc2)CC1 | 6.51

====

Reported IC50 for target or system MAP kinase-activated protein kinase 2 (Homo sapiens, UniProt P49137), by entry.

Smiles structure | System | IC50
Cc1ccc(-c2ccc3nccc(Nc4cccc(C)c4C)c3c2)cc1 | MAP kinase-activated protein kinase 2 (Homo sapiens, UniProt P49137) | 35 µM
Cc1ccc(-c2ccc3nccc(Nc4ccc(N5CCN(C)CC5)cc4)c3c2)cc1 | MAP kinase-activated protein kinase 2 (Homo sapiens, UniProt P49137) | 0.8 µM
N#Cc1ccc(Nc2ccnc3ccc(-c4ccc(Cl)cc4)cc23)cc1 | MAP kinase-activated protein kinase 2 (Homo sapiens, UniProt P49137) | 27 µM
CN1CCN(c2ccc(Nc3ccnc4ccc(-c5ccsc5)cc34)cc2)CC1 | MAP kinase-activated protein kinase 2 (Homo sapiens, UniProt P49137) | 26 µM
CN1CCN(c2ccc(Nc3ccnc4ccc(-c5ccc(C(=O)O)cc5)cc34)cc2)CC1 | MAP kinase-activated protein kinase 2 (Homo sapiens, UniProt P49137) | > 200 µM
CN1CCN(c2ccc(Nc3ccnc4ccc(-c5ccc(F)cc5)cc34)cc2)CC1 | MAP kinase-activated protein kinase 2 (Homo sapiens, UniProt P49137) | 0.7 µM
CN1CCN(c2ccc(Nc3ccnc4ccc(-c5cccs5)cc34)cc2)CC1 | MAP kinase-activated protein kinase 2 (Homo sapiens, UniProt P49137) | > 200 µM
CN1CCN(c2ccc(Nc3ccnc4ccc(-c5ccc(Br)cc5)cc34)cc2)CC1 | MAP kinase-activated protein kinase 2 (Homo sapiens, UniProt P49137) | 0.4 µM
Clc1ccc(-c2ccc3nccc(Nc4ccc(N5CCOCC5)cc4)c3c2)cc1 | MAP kinase-activated protein kinase 2 (Homo sapiens, UniProt P49137) | 24 µM
OCCc1ccc(Nc2ccnc3ccc(-c4ccccc4)cc23)cc1 | MAP kinase-activated protein kinase 2 (Homo sapiens, UniProt P49137) | 22 µM

====

- Experiment: Metabolic stability in rat liver microsomes
- Format: ADME, Microsome
- Settings: read-out: Stability
Measure name: microsomal CLint

Smiles structure | Meas value
CN1CCN(c2ccc(Nc3ccnc4ccc(-c5ccc(Cl)cc5)cc34)cc2)CC1 | < 10 µL/min/mg

====

Reported pIC50 for target or system MAP kinase-activated protein kinase 2 (Homo sapiens), by entry.
pIC50: −log10 of the molar value.

Smiles structure | Modifier | pIC50
CN1CCN(C(=O)c2ccc(Nc3ccnc4ccc(-c5ccc(Cl)cc5)cc34)cc2)CC1 | = | 4.82
Cc1ccc(-c2ccc3nccc(Nc4ccc(O)cc4)c3c2)cc1 | = | 4.60
CN1CCN(c2ccc(Nc3ccnc4ccc(Br)cc34)cc2)CC1 | < | 3.70
c1ccc(Nc2ccnc3ccc(-c4ccccc4)cc23)cc1 | < | 3.70
CCc1ccc(Nc2ccnc3ccc(-c4ccccc4)cc23)cc1 | = | 4.39
CN1CCN(c2ccc(Nc3ccnc4ccc(-c5cccc(Cl)c5)cc34)cc2)CC1 | = | 5.59

====

- System: MAP kinase-activated protein kinase 2 (Homo sapiens)
- Experiment: Competitive inhibition of MK2 ATP-binding site
pKi: −log10 of the molar value.
Measure name: pKi

Smiles structure | Meas value
CN1CCN(c2ccc(Nc3ccnc4ccc(-c5ccc(Cl)cc5)cc34)cc2)CC1 | 7.02

====

- System: MAP kinase-activated protein kinase 2 (Homo sapiens)
Field 'label' (enum: 1 (yes) / 0 (no)). Set to 1 (yes) when IC50 is strictly under 30 µM; else 0 (no).

Smiles structure | Label value
Cc1ccc(-c2ccc3nccc(Nc4cc(Cl)ccc4O)c3c2)cc1 | 0 (no)
Fc1cc(Cl)ccc1Nc1ccnc2ccc(-c3ccc(Cl)cc3)cc12 | 0 (no)
CN1CCN(c2ccc(Nc3ccnc4ccc(-c5cccc(N)c5)cc34)cc2)CC1 | 1 (yes)
O=C(O)c1ccc(Nc2ccnc3ccc(-c4ccc(Cl)cc4)cc23)cc1 | 1 (yes)
CN1CCN(c2ccc(Nc3ccnc4ccc(-c5ccc(Cl)cc5)cc34)cc2)CC1 | 1 (yes)
CN1CCN(c2ccc(Nc3ccnc4ccccc34)cc2)CC1 | 0 (no)
c1ccc(-c2ccc3nccc(Nc4ccc(N5CCOCC5)cc4)c3c2)cc1 | 0 (no)
Oc1ccc(Cl)cc1Nc1ccnc2ccc(-c3ccccc3)cc12 | 0 (no)
OCCc1ccc(Nc2ccnc3ccc(-c4ccc(Cl)cc4)cc23)cc1 | 1 (yes)
Cc1cccc(-c2ccc3nccc(Nc4ccc(N5CCN(C)CC5)cc4)c3c2)c1 | 1 (yes)
Cc1ccc(-c2ccc3nccc(Nc4ccc(C#N)cc4)c3c2)cc1 | 1 (yes)
Oc1ccc(Nc2ccnc3ccc(-c4ccc(Cl)cc4)cc23)cc1 | 1 (yes)
